# measured target: CRBN-DDB1 (Homo sapiens (Human))
# Sequence (Q96SW2 whole entry): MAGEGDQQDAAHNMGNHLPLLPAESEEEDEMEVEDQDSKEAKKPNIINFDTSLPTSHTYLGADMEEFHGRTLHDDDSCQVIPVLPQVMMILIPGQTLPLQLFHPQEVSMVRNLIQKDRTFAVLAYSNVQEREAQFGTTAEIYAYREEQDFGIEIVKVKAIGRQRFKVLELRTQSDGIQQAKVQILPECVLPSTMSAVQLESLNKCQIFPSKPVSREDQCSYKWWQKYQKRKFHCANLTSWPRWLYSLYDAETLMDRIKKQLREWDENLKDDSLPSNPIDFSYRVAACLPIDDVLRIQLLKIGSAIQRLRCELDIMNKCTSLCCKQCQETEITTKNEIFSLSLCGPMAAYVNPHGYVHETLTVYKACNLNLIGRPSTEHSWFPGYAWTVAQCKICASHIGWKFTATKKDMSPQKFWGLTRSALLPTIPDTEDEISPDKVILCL
# Sequence (Q16531 whole entry partner): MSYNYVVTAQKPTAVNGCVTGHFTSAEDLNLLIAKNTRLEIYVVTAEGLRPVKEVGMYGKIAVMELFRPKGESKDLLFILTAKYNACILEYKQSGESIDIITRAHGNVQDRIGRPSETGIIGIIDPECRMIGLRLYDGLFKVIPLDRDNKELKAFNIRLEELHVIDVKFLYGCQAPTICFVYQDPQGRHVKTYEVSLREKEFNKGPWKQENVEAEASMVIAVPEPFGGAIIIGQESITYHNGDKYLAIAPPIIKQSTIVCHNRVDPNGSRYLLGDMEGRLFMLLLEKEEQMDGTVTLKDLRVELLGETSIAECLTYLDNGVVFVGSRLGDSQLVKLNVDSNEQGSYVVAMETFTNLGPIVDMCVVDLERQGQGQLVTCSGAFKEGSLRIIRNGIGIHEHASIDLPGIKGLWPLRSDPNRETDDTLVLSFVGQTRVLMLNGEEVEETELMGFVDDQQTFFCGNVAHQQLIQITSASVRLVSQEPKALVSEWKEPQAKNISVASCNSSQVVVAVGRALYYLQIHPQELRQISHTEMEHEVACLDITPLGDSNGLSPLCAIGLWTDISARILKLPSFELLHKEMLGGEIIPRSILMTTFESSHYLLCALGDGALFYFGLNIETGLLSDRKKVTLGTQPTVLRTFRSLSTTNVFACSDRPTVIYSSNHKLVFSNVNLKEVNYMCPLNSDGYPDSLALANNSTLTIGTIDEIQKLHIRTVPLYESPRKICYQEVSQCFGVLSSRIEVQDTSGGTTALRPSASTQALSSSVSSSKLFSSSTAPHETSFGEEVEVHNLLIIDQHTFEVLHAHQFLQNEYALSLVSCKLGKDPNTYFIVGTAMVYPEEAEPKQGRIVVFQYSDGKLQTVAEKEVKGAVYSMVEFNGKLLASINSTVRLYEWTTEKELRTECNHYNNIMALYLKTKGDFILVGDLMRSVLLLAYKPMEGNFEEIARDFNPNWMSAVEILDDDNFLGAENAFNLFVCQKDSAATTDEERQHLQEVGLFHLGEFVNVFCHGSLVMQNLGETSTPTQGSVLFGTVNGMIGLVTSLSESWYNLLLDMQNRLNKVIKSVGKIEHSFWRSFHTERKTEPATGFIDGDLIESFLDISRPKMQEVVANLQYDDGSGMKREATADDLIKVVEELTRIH
# assay text: Compound binding to CRBN by HTRF assay
# Description: Compound activity was monitored in a Homogenous Time-Resolved Fluorescence (HTRF) assay using 1-[5-({2-[2-(2-{[2-(2,6-dioxopiperidin-3-yl)-1,3-dioxo-2,3-dihydro-1H-isoindol-4-yl]oxy}acetamido)ethoxy]ethyl}carbamoyl)pentyl]-3,3-dimethyl-2-[(1E,3E)-5-[(2E)-1,3,3-trimethyl-5-sulfo-2,3-dihydro-1H-indol-2-ylidene]penta-1,3-dien-1-yl]-3H-indol-1-ium-5-sulfonate as a fluorescent probe. Biochemical assays were conducted in Greiner white 384 well HiBase plates (Cat. No 784075-25) in 20 μL total volume. […]
pEC50: −log10 of the molar value.
measured property: pEC50

Examples from the recorded data:
**Query** Observed pEC50 on CRBN-DDB1 (Homo sapiens (Human)) for O=C1CCC(c2c(Cl)cc(CNC(=O)C3(c4ccnc(F)c4)CC(F)(F)C3)cc2Cl)C(=O)N1 (centres unmarked) , please.
**Result** 7.22

**Query** Give recorded pEC50 with CRBN-DDB1 (Homo sapiens (Human)) for the following compound: COc1nc(C(C)(C)C(=O)NCc2cc(Cl)c(C3CCC(=O)NC3=O)c(Cl)c2)ncc1C (centres unmarked)
**Result** 7.00

**Query** Can you look up pEC50 on CRBN-DDB1 (Homo sapiens (Human)) for CCOc1ccc(C(C)(C)C(=O)NCc2cc(F)c(C3CCC(=O)NC3=O)c(Cl)c2)nn1 (centres unmarked) ?
**Result** 7.15

**Query** GET /values?readout=pEC50&system=CRBN-DDB1 (Homo sapiens (Human))&item= CC(C)(C(=O)NCc1ccc(C2CCC(=O)NC2=O)c(Cl)c1)c1cnc(F)nc1 (centres unmarked)
**Result** 6.30

a = CCc1cnc(C(C)(C)C(=O)NCc2cc(Cl)c(C3CCC(=O)NC3=O)c(Cl)c2)cn1 (centres unmarked)
b = CC(C)(C(=O)NCc1ccc(C2CCC(=O)NC2=O)c(Cl)c1)c1ccc(S(N)(=O)=O)cc1 (centres unmarked)
**Query** Hi there! Just curious which has the higher pEC50 between a and b . Returns: label corresponding to the selected item.
**Result** a
